- TARGET DESC: hTRPC5 (Homo sapiens)
- Construct: expressed in transfected cells; host or cells: HEK293 TREx cells with inducible TRPC5 expression
- Sequence (Q9UL62 whole entry): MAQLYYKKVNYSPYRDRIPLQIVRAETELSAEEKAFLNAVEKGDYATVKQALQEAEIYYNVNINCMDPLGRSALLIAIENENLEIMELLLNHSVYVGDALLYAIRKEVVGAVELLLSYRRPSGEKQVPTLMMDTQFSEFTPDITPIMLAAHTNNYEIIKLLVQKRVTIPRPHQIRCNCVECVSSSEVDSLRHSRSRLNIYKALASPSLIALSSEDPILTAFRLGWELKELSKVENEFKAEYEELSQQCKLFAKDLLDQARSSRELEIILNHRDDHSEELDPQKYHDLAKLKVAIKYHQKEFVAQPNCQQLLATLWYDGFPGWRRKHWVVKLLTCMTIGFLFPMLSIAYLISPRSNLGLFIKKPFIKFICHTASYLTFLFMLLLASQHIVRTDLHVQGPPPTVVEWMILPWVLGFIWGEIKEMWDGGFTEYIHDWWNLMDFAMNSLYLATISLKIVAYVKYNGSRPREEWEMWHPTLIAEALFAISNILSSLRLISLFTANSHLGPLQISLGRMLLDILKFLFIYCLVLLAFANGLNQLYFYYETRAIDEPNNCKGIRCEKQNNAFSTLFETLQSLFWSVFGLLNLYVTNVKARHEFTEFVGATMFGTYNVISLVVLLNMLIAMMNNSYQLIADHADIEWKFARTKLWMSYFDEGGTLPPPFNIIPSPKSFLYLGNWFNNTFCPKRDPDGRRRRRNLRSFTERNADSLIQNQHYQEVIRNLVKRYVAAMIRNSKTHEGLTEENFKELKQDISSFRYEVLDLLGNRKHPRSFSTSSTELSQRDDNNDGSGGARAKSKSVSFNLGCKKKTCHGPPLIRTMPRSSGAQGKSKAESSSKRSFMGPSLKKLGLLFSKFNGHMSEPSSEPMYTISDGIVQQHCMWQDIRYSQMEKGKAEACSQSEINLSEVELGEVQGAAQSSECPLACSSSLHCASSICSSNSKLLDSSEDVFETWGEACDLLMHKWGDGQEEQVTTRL
- METHOD NOTES: Whole-cell patch clamp, block of LaCl3-activated TRPC5 inward current
- Type: cell-based
- PROTOCOL CONDITIONS: TRPC5-expressing HEK293 TREx cells, 80 μM LaCl3, inward current, IC50 estimated from 5 μM and 500 nM, read-out: hTRPC5 Patch La3+ Inwd (nM) (All Batches)
Recorded IC50 for the following molecules

Look over these answered cases.
Cn1c(=O)c2c(nc(Oc3cccc(C#N)c3)n2Cc2cccc(Br)c2)n(C)c1=O = 2000 to 10000 nM
CCCCc1cccc(Oc2nc3c(c(=O)n(C)c(=O)n3C)n2Cc2cccc(Br)c2)c1 = 2000 to 10000 nM
Cn1c(=O)c2c(nc(Oc3cc(Cl)cc(OC(F)(F)F)c3)n2Cc2ccc(Cl)cc2)n(C)c1=O = < 100 nM
CCCOC(=O)Cc1nc2c(c(=O)n(C)c(=O)n2C)n1Cc1cccc(Br)c1 = 2000 to 10000 nM
Cn1c(=O)c2c(nc(Oc3cccc(C(F)(F)F)c3)n2CCCc2ccc(Cl)cc2)n(C)c1=O = 2000 to 10000 nM

// next entry
Give IC50 for CCOC(=O)C(C)(C)CCc1nc2c(c(=O)n(C)c(=O)n2C)n1Cc1cccc(Br)c1 2000 to 10000 nM

====

Recorded IC50 for the following molecules
- TARGET DESC: hTRPC5 (Homo sapiens)
- Construct: expressed in transfected cells; host or cells: HEK293 TREx cells with inducible TRPC5 expression
- METHOD NOTES: Whole-cell patch clamp, block of LaCl3-activated TRPC5 inward current
- Assay type: cell-based
- PROTOCOL CONDITIONS: TRPC5-expressing HEK293 TREx cells, 80 μM LaCl3, inward current, IC50 estimated from 5 μM and 500 nM, read-out: hTRPC5 Patch La3+ Inwd (nM) (All Batches)

Look over these answered cases.
CCc1coc(CSc2nc3c(c(=O)n(C)c(=O)n3C)n2Cc2cccc(F)c2)n1 = 100 to 500 nM
CCCOCCc1nc2c(c(=O)n(C)c(=O)n2C)n1Cc1ccc(Br)cc1 = 1000 to 2000 nM
CCCNC(=O)Cc1nc2c(c(=O)n(C)c(=O)n2C)n1Cc1cccc(Br)c1 = 2000 to 10000 nM

Give IC50 for Cn1c(=O)c2c(nc(CCc3ccccc3)n2Cc2cccc(Br)c2)n(C)c1=O 500 to 1000 nM

Give IC50 for CCc1coc(CSc2nc3c(c(=O)n(C)c(=O)n3C)n2Cc2cccc(Br)c2)n1 100 to 500 nM

Give IC50 for CCc1ccccc1Oc1nc2c(c(=O)n(C)c(=O)n2C)n1Cc1ccc(Cl)cc1 100 to 500 nM

Give IC50 for Cn1c(=O)c2c(nc(Oc3cccc(C(F)(F)F)c3)n2Cc2cccc(Br)c2)n(C)c1=O 100 to 500 nM

Give IC50 for CCc1coc(CSc2nc3c(c(=O)n(C)c(=O)n3C)n2Cc2cccc(C)c2)n1 100 to 500 nM

Give IC50 for CCCOCCc1nc2c(c(=O)n(C)c(=O)n2C)n1Cc1cccc(C(C)=O)c1 2000 to 10000 nM

Recorded values, source patent US20160145257A1.
